Please provide measured selectivity ratio for the entries that follow.
# PROTOCOL DETAILS: Therapeutic index, ratio of IC50 for human HeLa cells to EC50 for Giardia lamblia trophozoites isolates
# Type: cell-based
# MEASUREMENT CONDITIONS: read-out: Ratio IC50/EC50
Output spec: single numeric token, no unit.

Ask: Item under review: Cn1c([N+](=O)[O-])cnc1/C=C/c1cccc(Cl)c1 . Reported selectivity ratio?
Result: 1380

Ask: Item under review: Cc1ccc(C(Br)C(Br)c2ncc([N+](=O)[O-])n2C)cc1 (stereo not drawn) . Reported selectivity ratio?
Result: 174

Sourced from ChEMBL document CHEMBL1137002
